These data points were gathered from patent US11760761B2.

STUDY_SYSTEM: PD-1/PD-L1 interaction (Homo sapiens (Human), UniProt Q9NZQ7)
Sequence (Q9NZQ7 19-290): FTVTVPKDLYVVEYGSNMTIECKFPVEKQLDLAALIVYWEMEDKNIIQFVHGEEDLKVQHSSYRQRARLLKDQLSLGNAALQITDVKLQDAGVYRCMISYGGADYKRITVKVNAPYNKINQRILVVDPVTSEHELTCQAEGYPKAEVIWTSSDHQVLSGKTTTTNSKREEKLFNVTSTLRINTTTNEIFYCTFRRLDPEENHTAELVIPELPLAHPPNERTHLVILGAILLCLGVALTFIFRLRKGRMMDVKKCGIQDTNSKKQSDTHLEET
ASSAY_INFO: PD-1/PD-L1 NFAT Reporter Assay (Jurkat T cells / PD-L1 expressing CHO cells co-culture)
EXPERIMENTAL_CONDITIONS: co-culture 6 hrs at 37° C., luciferase
MEASUREMENT_LABEL: EC50

Worked examples follow.
Noted for CCOC(=O)C1CN([C@H]2CCc3cc(-c4cccc(-c5cccc(-c6cnc(CN7CC(OC)C7)c(OC)n6)c5Cl)c4Cl)nc(OC)c32)C1 (single isomer, unassigned) [Compound G-5] : its EC50 reads 10 to 100 nM

Record COc1nc(-c2cccc(-c3cccc(-c4cc5c(c(OCC(C)C)n4)C(NC[C@@H]4CCC(=O)N4)CC5)c3Cl)c2Cl)cnc1CN1CC2(CCC(=O)N2)C1 (some centres unmarked) [Compound C-13] . Reported EC50: 10 to 100 nM

EC50 recorded for this compound, COc1nc(-c2cccc(-c3cccc(-c4cc5c(c(OC)n4)C(N4CCC[C@@H](C(=O)O)C4)CC5)c3Cl)c2Cl)cnc1CN1CC(O)C1 (some centres unmarked) [Compound F-1] , is 10 to 100 nM

Kindly note the recorded EC50 for CCOC(=O)CN1CCc2c(cc(-c3cccc(-c4cccc(-c5cnc(CN6CC(O)(C(F)(F)F)C6)c(OC)n5)c4Cl)c3Cl)nc2OC)C1 [Compound I-3] , which is 1000 to 10000 nM

Entry under test: COc1nc(-c2cccc(-c3cccc(-c4cc5c(c(OC)n4)[C@H](NC[C@@H]4CCC(=O)N4)CC5)c3Cl)c2Cl)cnc1CN1CC2(CCC(=O)N2)C1 [Compound C-2] . Its EC50 was 100 to 1000 nM

---
Sample COc1nc(-c2cccc(-c3cccc(-c4cc5c(c(OCc6ccccn6)n4)C(NC[C@@H]4CCC(=O)N4)CC5)c3Cl)c2Cl)cnc1CN1CC2(CCC(=O)N2)C1 (some centres unmarked) [Compound C-15] ; EC50 observed: 10 to 100 nM

So, COc1nc(-c2cccc(-c3cccc(-c4cc5c(c(OC)n4)[C@H](NC[C@@H]4CCC(=O)N4)CC5)c3Cl)c2Cl)cnc1CN1CC(O)C1 [Compound D-7] ? Its EC50 was 100 to 1000 nM

# EC50 (compound: COc1nc(-c2cccc(-c3cccc(-c4cc5c(c(OC)n4)C(NC4CN(C(C)=O)C4)CC5)c3Cl)c2Cl)cnc1CN1CC2(CCC(=O)N2)C1 (centres unmarked) [Compound C-8] ) is 10 to 100 nM

GET /value?item= COc1nc(-c2cccc(-c3cccc(-c4cc5c(c(OC)n4)[C@@H](NC[C@@H]4CCC(=O)N4)CC5)c3Cl)c2Cl)cnc1CN1CC(F)C1 [Compound D-4] &field=EC50 returns 10 to 100 nM

Sure, the documented EC50 for COc1nc(-c2cccc(-c3cccc(-c4cc5c(c(OC)n4)[C@@H](N4CC6(CCC(=O)N6)C4)CC5)c3Cl)c2Cl)cnc1CN1CC2(CCC(=O)N2)C1 (single isomer, unassigned) [Compound C-3] is ≤ 10 nM

EC50 recorded for this compound, COCCN1CCc2c(cc(-c3cccc(-c4cccc(-c5cnc(CN6CC7(CCC(=O)N7)C6)c(OC)n5)c4Cl)c3Cl)nc2OC)C1 [Compound K-2] , is 10 to 100 nM

###

STUDY_SYSTEM: PDL1/PD1 (Homo sapiens (Human), UniProt Q9NZQ7)
ASSAY_INFO: PDL1/PD1 Binding Assay
EXPERIMENTAL_CONDITIONS: PDL1-6xHis 0.3 nM, PD1-Fc-Avi-Biotin 2.5 nM, Acceptor/Donor beads; read-out: PD-1/PD-L1 PPI IC50
pIC50: −log10 of the molar value.
Reported values of pIC50 for individual entries

pIC50 in this record for COc1nc(-c2cccc(-c3cccc(-c4cc5c(c(OC)n4)[C@H](N4CC(C(=O)O)C4)CC5)c3Cl)c2Cl)cnc1CN1C[C@@H](O)[C@@H]1C (single isomer, unassigned) : ≥ 8.00

Looking up COc1cc(-c2cccc(-c3cccc(-c4cnc(CN5CC6(CCC(=O)N6)C5)c(OC)n4)c3Cl)c2Cl)cc2c1[C@@H](N1CC(O)C1)CC2 (single isomer, unassigned) , I see its pIC50 listed as ≥ 8.00

More entries:
The value of pIC50 measured for the molecule COc1nc(-c2cccc(-c3cccc(-c4cc5c(c(OC)n4)[C@@H](NC[C@@H]4CCC(=O)N4)CC5)c3Cl)c2Cl)cnc1CN1CC(F)C1 turned out to be ≥ 8.00

###

STUDY_SYSTEM: PDL1/PD1 (Homo sapiens (Human), UniProt Q9NZQ7)
ASSAY_INFO: PDL1/PD1 Binding Assay
EXPERIMENTAL_CONDITIONS: PDL1-6xHis 0.3 nM, PD1-Fc-Avi-Biotin 2.5 nM, Acceptor/Donor beads; read-out: PD-1/PD-L1 PPI IC50
Procedure: Compounds to be tested were serially diluted in DMSO, and further diluted in assay buffer (25 mM Hepes pH 7.4, 150 mM NaCl, 0.005% Tween 20, BSA 0.01%). Diluted compounds were added to the wells with final concentration of DMSO at 1%. […] The plates were sealed with foil and incubated in the dark for additional 1 h or overnight before reading on an Envision reader. The IC50 values were determined by fitting the curves using a four-parameter equation in Graphpad Prism 8.
MEASUREMENT_LABEL: IC50

Item: COc1cc(-c2cccc(-c3cccc(-c4cnc(CN5CC6(CCC(=O)N6)C5)c(OC)n4)c3Cl)c2Cl)cc2c1[C@@H](N1CC(C(=O)O)C1)CC2 (single isomer, unassigned) [Compound B-3] | IC50: ≤ 0.01 µM

compound COc1nc(-c2cccc(-c3cccc(-c4cc5c(c(OC)n4)[C@H](N4CC(O)C4)CC5)c3Cl)c2Cl)cnc1CN1CC2(CCC(=O)N2)C1 (single isomer, unassigned) [Compound C-6] , IC50 observed: ≤ 0.01 µM

Next item in the queue.
// sample COc1nc(-c2cccc(-c3cccc(-c4cc5c(c(OC)n4)[C@@H](NC[C@@H]4CCC(=O)N4)CC5)c3Cl)c2Cl)cnc1CN1CCN(C(C)=O)CC1 [Compound D-6] , its IC50 was ≤ 0.01 µM

###

STUDY_SYSTEM: PD-1/PD-L1 interaction (Homo sapiens (Human), UniProt Q9NZQ7)
ASSAY_INFO: PD-1/PD-L1 NFAT Reporter Assay (Jurkat T cells / PD-L1 expressing CHO cells co-culture)
Format: cell-based
EXPERIMENTAL_CONDITIONS: Jurkat; maximum NFAT-activation level relative to the positive control (10 nM Atezolizumab)
The entries below are paired with their reported Emax.
Respond numerically; units are % and should not be typed.

Item: COc1cc(-c2cccc(-c3cccc(-c4cnc(CN5CC6(CCC(=O)N6)C5)c(OC)n4)c3Cl)c2Cl)cc2c1C[C@@H](N1CC3(CCC(=O)N3)C1)C2 (single isomer, unassigned) | Emax: 191

Note to self: Emax recorded for COc1cc(-c2cccc(-c3cccc(-c4cnc(CN5CC6(CCC(=O)N6)C5)c(OC)n4)c3Cl)c2Cl)cc2c1C[C@H](N1CC3(CCC(=O)N3)C1)C2 (single isomer, unassigned) was 58

Query CCOC(=O)CN[C@@H]1CCc2cc(-c3cccc(-c4cccc(-c5cnc(CN6CC7(CCC(=O)N7)C6)c(OC)n5)c4Cl)c3Cl)cc(OC)c21 (single isomer, unassigned) yields Emax of 85

Entry COc1cc(-c2cccc(-c3cccc(-c4cnc(CN5CC6(CCC(=O)N6)C5)c(OC)n4)c3Cl)c2Cl)cc2c1C[C@H](N1CC(O)C1)C2 (single isomer, unassigned) — recorded Emax = 84

***
Recorded Emax (compound CCOC(=O)CN[C@H]1CCc2cc(-c3cccc(-c4cccc(-c5cnc(CN6CC7(CCC(=O)N7)C6)c(OC)n5)c4Cl)c3Cl)cc(OC)c21 ): 33

###

# Lookup of reported pEC50 keyed by entry
STUDY_SYSTEM: PD-1/PD-L1 interaction (Homo sapiens (Human), UniProt Q9NZQ7)
ASSAY_INFO: PD-1/PD-L1 NFAT Reporter Assay (Jurkat T cells / PD-L1 expressing CHO cells co-culture)
EXPERIMENTAL_CONDITIONS: co-culture 6 hrs at 37° C., luciferase
pEC50: −log10 of the molar value.

Recorded results for 6 compounds are shown here.
The observed pEC50 for COc1cc(-c2cccc(-c3cccc(-c4cnc(CN5CC6(CCC(=O)N6)C5)c(OC)n4)c3Cl)c2Cl)cc2c1C[C@H](N1CC(O)C1)C2 (single isomer, unassigned) when tested with PD-1/PD-L1 interaction (Homo sapiens (Human), UniProt Q9NZQ7) stands at 5.00 to 6.00

// pEC50 (PD-1/PD-L1 interaction (Homo sapiens (Human), UniProt Q9NZQ7)) for COc1nc(-c2cccc(-c3cccc(-c4cc5c(c(OC)n4)[C@@H](N4CC(O)C4)CC5)c3Cl)c2Cl)cnc1CN1CC2(CCC(=O)N2)C1 (single isomer, unassigned) = ≥ 8.00

Bench note, PD-1/PD-L1 interaction (Homo sapiens (Human), UniProt Q9NZQ7): entry COc1nc(-c2cccc(-c3cccc(-c4cc5c(c(OC)n4)[C@@H](N4CC(C(=O)O)C4)CC5)c3Cl)c2Cl)cnc1CN1C[C@@H](O)[C@@H]1C (single isomer, unassigned) , its pEC50 = 7.00 to 8.00

Record CCOC(=O)C1CN([C@H]2CCc3cc(-c4cccc(-c5cccc(-c6cnc(CN7C[C@@H](O)[C@@H]7C)c(OC)n6)c5Cl)c4Cl)nc(OC)c32)C1 (single isomer, unassigned) / PD-1/PD-L1 interaction (Homo sapiens (Human), UniProt Q9NZQ7), pEC50 recorded as < 5.00

The compound COc1nc(-c2cccc(-c3cccc(-c4cc5c(c(OC)n4)[C@H](N4CC6(CN(C(C)=O)C6)C4)CC5)c3Cl)c2Cl)cnc1CN1CC2(C1)CN(C(C)=O)C2 (single isomer, unassigned) on PD-1/PD-L1 interaction (Homo sapiens (Human), UniProt Q9NZQ7): pEC50 was ≥ 8.00

Record COc1cc(-c2cccc(-c3cccc(-c4cnc(CN5CC6(CCC(=O)N6)C5)c(OC)n4)c3Cl)c2Cl)cc2c1C[C@@H](N1CC3(CCC(=O)N3)C1)C2 (single isomer, unassigned) / PD-1/PD-L1 interaction (Homo sapiens (Human), UniProt Q9NZQ7), pEC50 recorded as 7.00 to 8.00

More entries:
Simply: COc1cc(-c2cccc(-c3cccc(-c4cnc(CN5CC6(CCC(=O)N6)C5)c(OC)n4)c3Cl)c2Cl)cc2c1[C@@H](NCC(=O)O)CC2 , PD-1/PD-L1 interaction (Homo sapiens (Human), UniProt Q9NZQ7), pEC50 = 5.00 to 6.00

The compound COc1nc(-c2cccc(-c3cccc(-c4cc5c(c(OC)n4)C(N4CC6(CN(C(C)=O)C6)C4)CC5)c3Cl)c2Cl)cnc1CN1CC2(CCC(=O)N2)C1 (stereo not shown) on PD-1/PD-L1 interaction (Homo sapiens (Human), UniProt Q9NZQ7): pEC50 was 7.00 to 8.00

Considering COc1nc(-c2cccc(-c3cccc(-c4cc5c(c(OC)n4)C(N4CCC[C@H](C(=O)O)C4)CC5)c3Cl)c2Cl)cnc1CN1CC(O)C1 (stereo partly shown) , its pEC50 with PD-1/PD-L1 interaction (Homo sapiens (Human), UniProt Q9NZQ7) was recorded as 7.00 to 8.00

Here CCOC(=O)C1CN([C@H]2CCc3cc(-c4cccc(-c5cccc(-c6cnc(CN7CC8(CCC(=O)N8)C7)c(OC)n6)c5Cl)c4Cl)cc(OC)c32)C1 (single isomer, unassigned) was tested on PD-1/PD-L1 interaction (Homo sapiens (Human), UniProt Q9NZQ7), and its pEC50 came to 6.00 to 7.00
